Target: T1, extracellular domain (ECD) of human IGSF11 (VSIG3), recombinant (human, UniProt Q5DX21 23-241)
T1 construct: biotinylated where captured on streptavidin; tags of the reagent not always stated; also called IGSF11 (ECD domain); ECD-IGSF11
T1 sequence: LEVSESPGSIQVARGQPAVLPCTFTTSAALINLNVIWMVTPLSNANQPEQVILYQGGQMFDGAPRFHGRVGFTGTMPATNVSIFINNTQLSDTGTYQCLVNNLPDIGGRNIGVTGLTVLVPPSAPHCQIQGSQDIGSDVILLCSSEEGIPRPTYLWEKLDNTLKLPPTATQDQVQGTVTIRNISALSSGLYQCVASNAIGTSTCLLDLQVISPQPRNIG
Assay: SPR
Entries and their Kd values follow.

Binder	Recorded Result
A-012 (IgG1 format) (antibody, V domains shown, human IgG1 format) VH: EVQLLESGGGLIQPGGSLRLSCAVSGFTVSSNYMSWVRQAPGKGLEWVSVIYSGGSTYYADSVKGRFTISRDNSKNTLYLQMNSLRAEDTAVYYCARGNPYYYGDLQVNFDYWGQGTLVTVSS VL: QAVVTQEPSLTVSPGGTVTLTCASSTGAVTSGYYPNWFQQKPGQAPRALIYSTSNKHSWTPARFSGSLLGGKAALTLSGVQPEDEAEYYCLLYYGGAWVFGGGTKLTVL	250 to 500 nM

Let us move to another entry and its Kd.
In: Recall and state the measured Kd for A-024 (IgG1 format) (antibody, V domains shown, also called A-024-like ABP) VH: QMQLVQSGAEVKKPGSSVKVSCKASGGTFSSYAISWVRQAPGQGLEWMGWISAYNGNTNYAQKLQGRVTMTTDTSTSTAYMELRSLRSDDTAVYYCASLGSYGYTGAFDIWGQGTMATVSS VL: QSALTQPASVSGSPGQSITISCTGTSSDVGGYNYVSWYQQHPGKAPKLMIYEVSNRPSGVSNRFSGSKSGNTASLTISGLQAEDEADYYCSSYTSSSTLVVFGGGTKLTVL .
Out: > 500 nM
